Data origin: BigSolDB 2.1

testParameters: in n-propanol, 293.15 K
assayReadout: solubility (mole fraction)

| molSmiles | recordedValue |
| --- | --- |
| O=C(O)c1cccnc1Nc1cccc(C(F)(F)F)c1 | 0.00999 |

====

testParameters: in MTBE, 313.15 K

| molSmiles | solubility (mole fraction) |
| --- | --- |
| O=C(O)c1cccnc1Nc1cccc(C(F)(F)F)c1 | 0.0663 |

====

testParameters: in n-heptane, 308.15 K

| molSmiles | solubility (mole fraction) |
| --- | --- |
| O=C(O)c1cccnc1Nc1cccc(C(F)(F)F)c1 | 0.00726 |

====

testParameters: in cyclohexane, 288.15 K
assayReadout: solubility (mole fraction)

| molSmiles | assayReadout | recordedValue |
| --- | --- | --- |
| O=C(O)c1cccnc1Nc1cccc(C(F)(F)F)c1 | solubility (mole fraction) | 0.00268 |
